tested on: AMARE (Amaranthus retroflexus); test: Greenhouse post-emergence test, test series 1, AMARE; format: in vivo; conditions: application rate 62.5 g/ha, scale 0 to 100 (100 = complete destruction, 0 = no damage)
Measured pest or weed control at 62.5 g/ha, listed per entry.
VALUE_TYPE: pest or weed control at 62.5 g/ha

>>> result("CN(CC(F)(F)F)C(=O)Nc1c(C(F)(F)F)cc(F)c(C(=O)Nc2nnnn2C)c1Cl [Example 10]")
"> 85%"
>>> result("Cc1c(NC(=O)N(CC(F)(F)F)CC(F)(F)F)c(Cl)cc(F)c1C(=O)Nc1nnnn1C [Example 19]")
"> 85%"
>>> result("CCN(CC(F)(F)F)C(=O)Nc1c(Cl)cc(F)c(C(=O)Nc2nnnn2C)c1Cl [Example 8]")
"> 85%"
>>> result("CCN(CC(F)(F)F)C(=O)Nc1c(Cl)cc(F)c(C(=O)Nc2nnnn2C)c1C [Example 18]")
"> 85%"
>>> result("CC(C)N(CC(F)(F)F)C(=O)Nc1c(Cl)cc(F)c(C(=O)Nc2nnnn2C)c1Cl [Example 20]")
"> 85%"
>>> result("CCN(CC(F)(F)F)C(=O)Nc1c(Br)cc(F)c(C(=O)Nc2nnnn2C)c1C [Example 2]")
"> 85%"
>>> result("Cc1c(NC(=O)N(C)CC(F)(F)F)c(Br)cc(F)c1C(=O)Nc1nnnn1C [Example 1]")
"> 85%"
>>> result("Cn1nnnc1NC(=O)c1c(F)cc(C(F)(F)F)c(NC(=O)N(CC(F)(F)F)CC(F)(F)F)c1Cl [Example 22]")
"> 85%"
>>> result("Cc1c(NC(=O)N(CC(F)(F)F)C(C)C)c(Cl)cc(F)c1C(=O)Nc1nnnn1C [Example 13]")
"> 85%"
>>> result("Cc1c(NC(=O)N(CC(F)(F)F)CC(F)(F)F)c(Br)cc(F)c1C(=O)Nc1nnnn1C [Example 3]")
"> 85%"
>>> result("Cc1c(NC(=O)N(CC(F)(F)F)C2CC2)c(Br)cc(F)c1C(=O)Nc1nnnn1C [Example 6]")
"> 85%"
>>> result("Cn1nnnc1NC(=O)c1c(F)cc(Cl)c(NC(=O)N(CC(F)(F)F)C2CC2)c1Cl [Example 7]")
"> 85%"
>>> result("CC(C)N(CC(F)(F)F)C(=O)Nc1c(C(F)(F)F)cc(F)c(C(=O)Nc2nnnn2C)c1Cl [Example 14]")
"> 85%"
>>> result("CN(CC(F)(F)F)C(=O)Nc1c(Cl)cc(F)c(C(=O)Nc2nnnn2C)c1Cl [Example 9]")
"> 85%"
>>> result("Cc1c(NC(=O)N(C)CC(F)(F)F)c(Cl)cc(F)c1C(=O)Nc1nnnn1C [Example 12]")
"> 85%"
>>> result("Cc1c(NC(=O)N(CC(F)(F)F)C2CC2)c(Cl)cc(F)c1C(=O)Nc1nnnn1C [Example 21]")
"> 85%"

src = patent US20200369629A1
